Hey, just so you know, these numbers are from patent US20160346249A1.

# Method: Single dose 300 mg / 450 mg pharmacokinetic, safety and tolerability study in healthy male and female subjects
# Recorded Conditions: both, human, plasma, po, 300 mg
Measure Name: concentration at 0.5 h (ng/mL)
Your answer should be a plain number; it is taken to be in ng/mL.

Entry O=C1NCC2(c3ccc(Cl)c(Cl)c3)CC12 (stereo not shown) [EB-10101] ; concentration at 0.5 h = 42.8

====

# Method: 13-week mouse toxicity and toxicokinetic study
# Recorded Conditions: female, Crl:CD-1(ICR) BR, in vivo, po, 10 mg/kg/day, AUC0-24
Measure Name: AUC(0-t)
Value and unit, in that order.

Entry Clc1ccc([C@]23CNC[C@H]2C3)cc1Cl [amitifadine] ; AUC(0-t) = 2540 ng·h/mL
